# interaction score per entry
Biological target: T1, 4H458-AA
T1 chain: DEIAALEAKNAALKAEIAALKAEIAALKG
Assay: two-hybrid library CCmax;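 also: natural log of median RNA to DNA barcode read ratio; higher means stronger binding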
Details: mean of both orientations
Enter a number only.

| binder | measured-attribute | result |
| --- | --- | --- |
| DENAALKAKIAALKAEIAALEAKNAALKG [4H1864-AA] | interaction score | -1.21 |
| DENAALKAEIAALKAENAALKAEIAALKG [4H1626-AA] | interaction score | -1.65 |

Prompt: Field request: interaction score | item: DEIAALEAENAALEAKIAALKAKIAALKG [4H174-AA]
Response: 0.887

Where do these numbers come from? They come from paper PMC10397247.
